Each item that follows carries a reported relative viability.
System: NCI-H2342
TEST_NAME: relative viability (nuclei count vs DMSO), 5 days (fraction); higher = more cells survive
RUN_CONDITIONS: first compound 0.1265 µM
QUANTITY_NAME: relative viability

{"COMPOUND": "COc1cc(N2CCC(C(N)=O)CC2)ccc1Nc1nc(N)c(Cl)c(Nc2ccccc2S(=O)(=O)C(C)C)n1 [HG-5-88-01] + CCNC(=O)c1noc(-c2cc(C(C)C)c(O)cc2O)c1-c1ccc(CN2CCOCC2)cc1 [Luminespib] (partner 0.01 µM)", "MEASURED_RESULT": 0.739}
{"COMPOUND": "C[C@@H]1CN(CC(=O)Nc2ccc3c(c2)Cc2cccc(-c4cc(=O)cc(N5CCOCC5)o4)c2S3)C[C@H](C)O1 + COc1cc2c(Oc3ccc(NC(=O)C4(C(=O)Nc5ccc(F)cc5)CC4)cc3F)ccnc2cc1OCCCN1CCOCC1 [Foretinib] (partner 0.25 µM)", "MEASURED_RESULT": 0.95}
{"COMPOUND": "COc1cc(N2CCC(C(N)=O)CC2)ccc1Nc1nc(N)c(Cl)c(Nc2ccccc2S(=O)(=O)C(C)C)n1 [HG-5-88-01] + Nc1nc2[nH]cc(CCc3ccc(C(=O)N[C@@H](CCC(=O)O)C(=O)O)cc3)c2c(=O)[nH]1 [Pemetrexed] (partner 0.2 µM)", "MEASURED_RESULT": 0.769}
{"COMPOUND": "COc1cc(N2CCC(C(N)=O)CC2)ccc1Nc1nc(N)c(Cl)c(Nc2ccccc2S(=O)(=O)C(C)C)n1 [HG-5-88-01] + Cc1cc(Nc2cc(N3CCN(C)CC3)nc(Sc3ccc(NC(=O)C4CC4)cc3)n2)n[nH]1 [Tozasertib] (partner 0.1 µM)", "MEASURED_RESULT": 0.547}

====

Readings of relative viability for the listed molecules
Test system: NCI-H520
TEST_NAME: relative viability (nuclei count vs DMSO), 5 days (fraction); higher = more cells survive
RUN_CONDITIONS: first compound 0.04 µM

{"MOLECULE": "COc1cc(N2CCC(C(N)=O)CC2)ccc1Nc1nc(N)c(Cl)c(Nc2ccccc2S(=O)(=O)C(C)C)n1 [HG-5-88-01] + COc1cccc2cc(-c3nc([C@H]4CC[C@H](C(=O)O)CC4)n4ncnc(N)c34)[nH]c12 [OSI-027] (partner 0.5 µM)", "relative viability": 0.23}
{"MOLECULE": "Clc1ccc(Nc2nnc(Cc3ccncc3)c3ccccc23)cc1 [Vatalanib] + O=C(c1cc(Cc2n[nH]c(=O)c3ccccc23)ccc1F)N1CCN(C(=O)C2CC2)CC1 [Olaparib] (partner 8 µM)", "relative viability": 0.392}
{"MOLECULE": "C[C@@H]1CN(CC(=O)Nc2ccc3c(c2)Cc2cccc(-c4cc(=O)cc(N5CCOCC5)o4)c2S3)C[C@H](C)O1 + CC(=O)c1c(C)c2cnc(Nc3ccc(N4CCNCC4)cn3)nc2n(C2CCCC2)c1=O [Palbociclib] (partner 0.5 µM)", "relative viability": 0.219}
{"MOLECULE": "C[C@@H]1CN(CC(=O)Nc2ccc3c(c2)Cc2cccc(-c4cc(=O)cc(N5CCOCC5)o4)c2S3)C[C@H](C)O1 + C[C@]1(O)C[C@@H](c2nc(-c3ccc4ccc(-c5ccccc5)nc4c3)c3c(N)nccn32)C1 [Linsitinib] (partner 1 µM)", "relative viability": 1.1}
